Taken from patent US20210130452A1.

# Measured Target: T1, human IL-17A (human, UniProt Q16552 24-155, biotinylated with Sulfo-NHS-LC-Biotin in the AlphaScreen assays only)
# T1 construct: also called hIL-17A; recombinant human IL-17A
# T1 sequence (Q16552 other isoform, or with tags, fused parts or gaps): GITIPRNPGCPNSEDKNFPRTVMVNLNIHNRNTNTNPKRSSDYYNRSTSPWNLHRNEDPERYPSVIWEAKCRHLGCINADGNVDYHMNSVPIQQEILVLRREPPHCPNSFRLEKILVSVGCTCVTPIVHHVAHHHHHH
# Method Summary: AlphaScreen competition, hIL-17A - IL-17RA-Fc;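 further: receptor Fc-fusion plus Acceptor and streptavidin Donor beads incubated with the mixture for 1 h at room temperature before reading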
Outcome Measure: pIC50
Lab note: report pIC50 as minus log10 of the concentration in molar units, number only.

INSERT INTO measurements (binder, outcome_measure, numeric_result) VALUES
  ('17C01 (VHH, Class 4 Nanobody (cross-reactive: anti-IL-17A, IL-17F and IL-17A/F); not shown: c-myc, His6 tag) VHH: EVQLVESGGRLVQAGGSLRLPCAASGRTFTSYPMGWFRQAPGKEREFVAAISMSGDDAAYADFVRGRFTISRDDARNTVYLHMTSLKPEDTAVYYCAARTSYDGTYDYIDDYSYWGQGTQVTVSS', 'pIC50', 10.18),
  ('11C08 (VHH, Class 4 Nanobody (cross-reactive: anti-IL-17A, IL-17F and IL-17A/F); not shown: c-myc, His6 tag) VHH: EVQLVESGGGLVQAGGSLRLSCAASGVIFRLNAMGWYRAAPGKQRELVAIIVNGGSTNYADSVKGRFTISRDSAKNAVYLQMNSLKPEDTAVYYCYYNIPGDVYWGQGTQVTVSS', 'pIC50', 8.67),
  ('13B05 (VHH, Class 4 Nanobody (cross-reactive: anti-IL-17A, IL-17F and IL-17A/F); not shown: c-myc, His6 tag) VHH: EVQLVESGGRLVQAGGSLRLSCAASGRTFTSYPMGWFRQAPGKEREFVAAISMSGDDTAYTDFVRGRFTISRDDARNTVYLHMTSLKPEDTAVYYCAARTSYDGTYDYIDDYSYWGQGTQVTVSS', 'pIC50', 9.93);

Field: next binder
Task: Output measured pIC50 for this item: 03E05 (VHH, Class 1 Nanobody (anti-IL-17A); not shown: c-myc, His6 tag) VHH: EVQLVESGGGLVQAGGSLRLSCAASGVTFDDYSIGWFRQAPGKEREGVSCISSSDGIPYYSDFVKGRFTTSIDNAKNTVYLQMNSLKPEDTAVYYCAAGFGRLCAEFDSWGQGTQVTVSS
Output: 10.24
